Test system: HeLa
experiment_notes: Photocytotoxicity against human HeLa cells assessed as cell survival preincubated for 24 hrs followed by irradiation at 16 J/cm2 measured at 24 hrs by WST-8 assay
Assay type: functional, cell-based
condition_context: light or radiation study
measurement_name: pEC50
One number for each entry, as −log10 of the molar value.

- OC[C@H]1O[C@@H](Oc2ccc(/C3=C4\C=CC(=N4)C(c4ccc(O[C@@H]5O[C@H](CO)[C@@H](O)[C@H](O)[C@H]5O)cc4)C4=N/C(=C(/c5ccc(O[C@@H]6O[C@H](CO)[C@@H](O)[C@H](O)[C@H]6O)cc5)c5ccc([nH]5)/C(c5ccc(O[C@@H]6O[C@H](CO)[C@@H](O)[C@H](O)[C@H]6O)cc5)=C5/C=CC3=N5)C=C4)cc2)[C@H](O)[C@@H](O)[C@@H]1O (some centres undefined): 5.30
- OC[C@H]1O[C@@H](Sc2c(F)c(F)c(/C3=C4\C=CC(=N4)C(c4c(F)c(F)c(F)c(F)c4F)C4=N/C(=C(/c5c(F)c(F)c(S[C@@H]6O[C@H](CO)[C@@H](O)[C@H](O)[C@H]6O)c(F)c5F)c5ccc([nH]5)/C(c5c(F)c(F)c(F)c(F)c5F)=C5/C=CC3=N5)C=C4)c(F)c2F)[C@H](O)[C@@H](O)[C@@H]1O (some centres undefined): 8.00
- CN1CC2C3=N/C(=C(/c4c(F)c(F)c(S[C@@H]5O[C@H](CO)[C@@H](O)[C@H](O)[C@H]5O)c(F)c4F)C4=N/C(=C(/c5c(F)c(F)c(F)c(F)c5F)c5ccc([nH]5)/C(c5c(F)c(F)c(S[C@@H]6O[C@H](CO)[C@@H](O)[C@H](O)[C@H]6O)c(F)c5F)=C5/C=CC(=N5)C3c3c(F)c(F)c(F)c(F)c3F)C=C4)C2C1 (some centres undefined): 9.30

Next item in the queue.
Field request: pEC50 | item: CN1CC2C3=N/C(=C(/c4c(F)c(F)c(S[C@@H]5O[C@H](CO)[C@@H](O)[C@H](O)[C@H]5O)c(F)c4F)C4=N/C(=C(/c5c(F)c(F)c(S[C@@H]6O[C@H](CO)[C@@H](O)[C@H](O)[C@H]6O)c(F)c5F)c5ccc([nH]5)/C(c5c(F)c(F)c(S[C@@H]6O[C@H](CO)[C@@H](O)[C@H](O)[C@H]6O)c(F)c5F)=C5/C=CC(=N5)C3c3c(F)c(F)c(S[C@@H]5O[C@H](CO)[C@@H](O)[C@H](O)[C@H]5O)c(F)c3F)C=C4)C2C1 (some centres undefined)
7.30

* * *

experiment_notes: Induction of reactive oxygen generation assessed as quantum yield of singlet oxygen generation in O2 saturated D2O containing 0.1% DMSO by spectrometry
Format: physicochemical
measurement_name: Activity

* CN1CC2C3=N/C(=C(/c4c(F)c(F)c(S[C@@H]5O[C@H](CO)[C@@H](O)[C@H](O)[C@H]5O)c(F)c4F)C4=N/C(=C(/c5c(F)c(F)c(F)c(F)c5F)c5ccc([nH]5)/C(c5c(F)c(F)c(S[C@@H]6O[C@H](CO)[C@@H](O)[C@H](O)[C@H]6O)c(F)c5F)=C5/C=CC(=N5)C3c3c(F)c(F)c(F)c(F)c3F)C=C4)C2C1 (some centres undefined) | 0.25
* OC[C@H]1O[C@@H](Sc2c(F)c(F)c(/C3=C4\C=CC(=N4)C(c4c(F)c(F)c(F)c(F)c4F)C4=N/C(=C(/c5c(F)c(F)c(S[C@@H]6O[C@H](CO)[C@@H](O)[C@H](O)[C@H]6O)c(F)c5F)c5ccc([nH]5)/C(c5c(F)c(F)c(F)c(F)c5F)=C5/C=CC3=N5)C=C4)c(F)c2F)[C@H](O)[C@@H](O)[C@@H]1O (some centres undefined) | 0.16
* CN1CC2C3=N/C(=C(/c4c(F)c(F)c(S[C@@H]5O[C@H](CO)[C@@H](O)[C@H](O)[C@H]5O)c(F)c4F)C4=N/C(=C(/c5c(F)c(F)c(S[C@@H]6O[C@H](CO)[C@@H](O)[C@H](O)[C@H]6O)c(F)c5F)c5ccc([nH]5)/C(c5c(F)c(F)c(S[C@@H]6O[C@H](CO)[C@@H](O)[C@H](O)[C@H]6O)c(F)c5F)=C5/C=CC(=N5)C3c3c(F)c(F)c(S[C@@H]5O[C@H](CO)[C@@H](O)[C@H](O)[C@H]5O)c(F)c3F)C=C4)C2C1 (some centres undefined) | 0.17

Dear colleague, I am looking for the recorded Activity of the following molecule: O=S(=O)(O)c1ccc(-c2c3nc(c(-c4ccc(S(=O)(=O)O)cc4)c4ccc([nH]4)c(-c4ccc(S(=O)(=O)O)cc4)c4nc(c(-c5ccc(S(=O)(=O)O)cc5)c5ccc2[nH]5)C=C4)C=C3)cc1
0.72
